test system: large crabgrass (Digitaria sanguinalis); assay: Test A pre-/postemergence plant response; format: in vivo; details: Postemergence, 500 g ai/ha; visual injury, 0 to 100 scale (0 no effect, 100 complete control), approx. ten days
Measured Crabgrass, Large plant response rating accompanies every entry in the list below.
measured-metric: Crabgrass, Large plant response rating

> print(dat)
                                   compound  test.value
1  COc1ccc(-n2c(-c3cccc(C)c3)ncc(C(=O)C3=C(O)CCCC3=O)c2=O)cc1          30
2  Cc1ccc(-n2c(-c3cccc(C)c3)ncc(C(=O)C3=C(O)CCCC3=O)c2=O)cc1          80
3  Cc1ccc(-n2c(-c3cc(F)cc(F)c3)ncc(C(=O)C3=C(O)CCCC3=O)c2=O)cc1         100
4  CCCn1c(-c2cccc(C)c2)ncc(C(=O)C2=C(O)CCCC2=O)c1=O          80
5  CCc1cccc(-n2c(-c3ccccc3)ncc(C(=O)C3=C(O)CCCC3=O)c2=O)c1          90
6  CCn1c(-c2cccc(F)c2)ncc(C(=O)C2=C(O)C3CCC(C3)C2=O)c1=O (centres unmarked)          90
7  Cc1ccccc1-n1c(-c2cccc(Br)c2)ncc(C(=O)C2=C(O)CCCC2=O)c1=O         100
8  CCCCn1c(-c2cccc(C)c2)ncc(C(=O)C2=C(O)C3CCC(C3)C2=O)c1=O (centres unmarked)          60

----------
System: barnyardgrass (Echinochloa crus-galli)
Experiment: Test B flooded paddy test
Assay type: in vivo
Settings: 250 g ai/ha; flooded paddy test; visual rating on 0 to 100 scale (0 no effect, 100 complete control) after 13 to 15 days
Source text: Plant species in the flooded paddy test consisted of rice (Oryza sativa), umbrella sedge (Cyperus difformis), ducksalad (Heteranthera limosa) and barnyardgrass (Echinochloa crus-galli) grown to the 2-leaf stage for testing. […] Treated plants and controls were maintained in a greenhouse for 13 to 15 days, after which time all treated plants were visually evaluated and compared to controls. […]
Please note: YES applies when Plant response rating, Flood, Barnyardgrass is 60 or greater, and NO applies otherwise.

> print(dat)
                            chemical.string  group.label
1  O=C1CCCC(O)=C1C(=O)c1cnc(-c2ccc(Cl)cc2)n(-c2ccccc2)c1=O           NO
2  CCCn1c(-c2ccc(OC)cc2)ncc(C(=O)C2=C(O)CCCC2=O)c1=O           NO
3  CCOCCn1c(-c2ccccc2)ncc(C(=O)C2=C(O)CCCC2=O)c1=O          YES
4  Cc1cccc(-c2ncc(C(=O)C3=C(O)CCCC3=O)c(=O)n2-c2cc(F)ccc2C)c1          YES
5  O=C1CCCC([O-])=C1C(=O)c1cnc(-c2ccccc2)n(-c2ccccc2)c1=O.[K+]           NO
6  COCCCn1c(-c2cccc(F)c2)ncc(C(=O)C2=C(O)CCCC2=O)c1=O          YES
7  CCc1cccc(-n2c(-c3ccccc3)ncc(C(=O)C3=C(O)CCCC3=O)c2=O)c1           NO
8  CCCn1c(-c2ccsc2)ncc(C(=O)C2=C(O)CCCC2=O)c1=O          YES

----------
system: chickweed (Stellaria media); assay: Test B postemergence plant response; assay type: in vivo; conditions: Postemergence, 250 g ai/ha; scale 0 to 100 (0 no effect, 100 complete control)
The entries below are paired with their reported Plant response rating, Chickweed.
measured-metric: Plant response rating, Chickweed

> print(dat)
                                   compound                   measured.metric  test.value
1  Cc1ccc(F)c(-n2c(-c3ccccc3)ncc(C(=O)C3=C(O)CCCC3=O)c2=O)c1  Plant response rating, Chickweed          95
2  COCCn1c(-c2ccco2)ncc(C(=O)C2=C(O)CCCC2=O)c1=O  Plant response rating, Chickweed         100
3  CCCCc1ncc(C(=O)C2=C(O)CCCC2=O)c(=O)n1-c1ccccc1C  Plant response rating, Chickweed          80
4  COCCOCCn1c(-c2ccccc2)ncc(C(=O)C2=C(O)CCCC2=O)c1=O  Plant response rating, Chickweed         100
5  CC(C)Cc1ncc(C(=O)C2=C(O)CCCC2=O)c(=O)n1-c1ccccc1  Plant response rating, Chickweed         100
6  O=C1CCCC(O)=C1C(=O)c1cnc(C2CC2)n(-c2ccccc2)c1=O  Plant response rating, Chickweed         100
7  CCOCCn1c(-c2ccccc2)ncc(C(=O)C2=C(O)CCCC2=O)c1=O  Plant response rating, Chickweed         100
8  O=C1CCCC(O)=C1C(=O)c1cnc(-c2cccs2)n(CC2CCCO2)c1=O (centres unmarked)  Plant response rating, Chickweed         100
